Experimental System: porcine pancreatic α-amylase (Sus scrofa, UniProt P00690)
Construct: purchased Sigma-Aldrich (St. Louis, MO, USA); host or cells: porcine pancreas
Sequence (P00690 16-511): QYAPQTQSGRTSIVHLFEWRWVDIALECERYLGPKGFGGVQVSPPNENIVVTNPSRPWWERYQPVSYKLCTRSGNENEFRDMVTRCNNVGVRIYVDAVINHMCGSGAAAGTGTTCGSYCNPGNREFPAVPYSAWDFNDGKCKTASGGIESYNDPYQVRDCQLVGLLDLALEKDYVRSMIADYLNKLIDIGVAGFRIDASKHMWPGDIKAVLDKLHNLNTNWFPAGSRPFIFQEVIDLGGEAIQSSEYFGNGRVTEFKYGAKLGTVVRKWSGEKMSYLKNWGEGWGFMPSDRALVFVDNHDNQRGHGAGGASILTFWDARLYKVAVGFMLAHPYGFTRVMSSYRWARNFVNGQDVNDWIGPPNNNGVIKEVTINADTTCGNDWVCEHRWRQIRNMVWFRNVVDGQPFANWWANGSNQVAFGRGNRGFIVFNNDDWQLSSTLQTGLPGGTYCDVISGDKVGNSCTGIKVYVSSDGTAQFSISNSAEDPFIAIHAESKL
Protocol Description: α-amylase inhibition assay
Type: biochemical
Assay Metric: IC50 (mM)
Express it in mM; write the number only.

Ask: So what does the record say about IC50 for O=C(O)c1cc(O)c(O)c(O)c1 [Gallic acid, gallic acid] ?
Result: 7.39

###

Experimental System: α-glucosidase
Protocol Description: α-glucosidase inhibition assay
Type: biochemical
Assay Metric: IC50, α-Glucosidase

Examples from the recorded data:
Smiles | Experimental System | IC50, α-Glucosidase
CC(=O)O[C@@H]1CC(C)=C2[C@H]1[C@H](C)CC[C@H]2/C=C(\C)C(=O)O | α-glucosidase | 1.827 ± 0.005D mg/mL
O=C(O)c1ccc(O)c(O)c1 | α-glucosidase | 3.721 ± 0.042B mg/mL
CC1=C2[C@H](/C=C(\C)C(=O)O)CC[C@@H](C)[C@H]2CC1 | α-glucosidase | 0.617 ± 0.028F mg/mL

Ask: Reported IC50, α-Glucosidase for O=C(O)c1cc(O)c(O)c(O)c1 : what is it?
Result: 2.164 ± 0.026C mg/mL

Ask: Recorded IC50, α-Glucosidase for O=C(O)/C=C/c1ccc(O)c(O)c1 , please?
Result: 1.289 ± 0.024E mg/mL
